Source listed as the supplement of paper PMC3545927.

molecular target: furin, P09958; assay: furin cleavage Z-score vs untreated control; higher = more cleavage, active = 3.5 or more, inactive = 1 or less, 8 variable residues between constant flanks; settings: 7.5 min;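 note: purified furin at 1:10 enzyme:substrate in 50 mM HEPES pH 7.5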
Sequence (P09958 whole entry): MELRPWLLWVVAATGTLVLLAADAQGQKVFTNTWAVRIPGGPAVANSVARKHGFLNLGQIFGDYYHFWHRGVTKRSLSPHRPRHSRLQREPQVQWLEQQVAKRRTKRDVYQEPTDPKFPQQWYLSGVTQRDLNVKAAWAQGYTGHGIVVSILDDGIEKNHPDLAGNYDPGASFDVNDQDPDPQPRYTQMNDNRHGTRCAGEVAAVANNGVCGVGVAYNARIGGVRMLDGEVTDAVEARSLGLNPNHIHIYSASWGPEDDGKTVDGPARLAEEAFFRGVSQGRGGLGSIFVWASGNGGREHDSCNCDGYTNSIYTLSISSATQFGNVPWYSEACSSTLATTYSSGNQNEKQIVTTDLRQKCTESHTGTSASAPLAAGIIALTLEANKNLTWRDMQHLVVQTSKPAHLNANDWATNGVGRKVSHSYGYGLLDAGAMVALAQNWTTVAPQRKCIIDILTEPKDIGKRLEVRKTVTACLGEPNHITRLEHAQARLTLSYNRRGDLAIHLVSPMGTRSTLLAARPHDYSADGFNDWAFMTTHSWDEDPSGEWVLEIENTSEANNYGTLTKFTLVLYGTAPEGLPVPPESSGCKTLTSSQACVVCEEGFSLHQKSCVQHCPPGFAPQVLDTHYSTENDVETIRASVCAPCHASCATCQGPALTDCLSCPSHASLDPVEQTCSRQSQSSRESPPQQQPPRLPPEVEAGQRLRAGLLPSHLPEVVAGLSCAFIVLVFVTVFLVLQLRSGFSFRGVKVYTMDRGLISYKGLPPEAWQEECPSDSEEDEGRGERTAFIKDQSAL
The list shows a part of the results. No count for the full screen is at hand.
endpoint-label: furin cleavage Z-score
Write no unit; give the number alone.

INPUT: Supply measured furin cleavage Z-score of CAEVVTSTKVAGNASASA [HC2234] in your reply.
OUTPUT: 0.581

INPUT: Output measured furin cleavage Z-score for this item: CARMTRSVDNAGNASASA [FS-2396]
OUTPUT: 10.7

INPUT: Fill in reported furin cleavage Z-score for this entry: CARMRRRPGPAGNASASA [FS-2725]
OUTPUT: 0.305

INPUT: Supply measured furin cleavage Z-score of CARTTRSVVHAGNASASA [FS-2837] in your reply.
OUTPUT: -0.34

INPUT: Tell us which furin cleavage Z-score value is on record for CARMRRDGWPAGNASASA [FS-2723]
OUTPUT: 2.95

INPUT: Give reported furin cleavage Z-score value for CARFERAIGPAGNASASA [FS-2662]
OUTPUT: 1.09

INPUT: Look up and report measured furin cleavage Z-score for this entry: CARRRRHPDDAGNASASA [FS-3063]
OUTPUT: 3.1

INPUT: Please give the documented furin cleavage Z-score of CARDGRDGTPAGNASASA [FS-2000]
OUTPUT: 0.0974

INPUT: Provide furin cleavage Z-score value for the following sequence: CATTMRSPVFAGNASASA [HC762]
OUTPUT: -1.56

INPUT: In one line, give reported furin cleavage Z-score of the entry CARSNRFSWMAGNASASA [FS-3088] .
OUTPUT: 1.34

INPUT: Note down furin cleavage Z-score recorded for CARSWRLACEAGNASASA [FS-2610]
OUTPUT: -1.13

INPUT: Provide measured furin cleavage Z-score value, entry: CARRRRHAGEAGNASASA [FS-2404]
OUTPUT: 6.46

INPUT: Give reported furin cleavage Z-score value for CAAPPPSWDQAGNASASA [HC960]
OUTPUT: -0.113

INPUT: Identify measured furin cleavage Z-score associated with CARMRRPPGGAGNASASA [FS-2496]
OUTPUT: -0.899

INPUT: Recall and state the measured furin cleavage Z-score for CARRRRHPDEAGNASASA [FS-1785] .
OUTPUT: 5.6
